# Test system: SK-OV-3 ovarian
# PROTOCOL DESCRIPTION: NCI-60 one-dose screen, 48 h
# MEASUREMENT SETUP: 10 µM unless noted
About 83,000 compounds went through this panel and 20% of them were active in at least one assay; those are over-represented in the sample as a whole. Activity calls are given as the source filed them. How the source made its calls: active means growth percent below 10; inactive means the rest.
Just give me one of these, please: active, inactive

These solved cases illustrate the format of a correct answer.
{"MOLECULE": "CCNCc1c(-c2cccc(OC(F)(F)F)c2)[nH]c2ccc(N3CCCC3)cc2c1=O", "CATEGORY": "inactive"}
{"MOLECULE": "Cc1cc(=O)n2nc(-c3cn(C)c4ccc(Cl)cc34)sc2n1", "CATEGORY": "inactive"}
{"MOLECULE": "CN(c1ccc(Br)cc1)S(=O)(=O)c1ccc(-c2cnc(C3CC3)o2)cc1", "CATEGORY": "inactive"}

QUERY: Hi team, can someone confirm the assay call for O=C1C[C@@H](c2ccccc2)Oc2c(Cc3ccccc3O)c(O)c(Cc3cc(Cc4cc(Cc5ccccc5O)ccc4O)ccc3O)c(O)c21 ?
RESULT: inactive

QUERY: Moving on to COc1cnc2c(c1)C(=O)c1c-2n(CCCNCC2CC2)c(=O)c2cc(F)ccc12
RESULT: active

QUERY: Moving on to COCCOc1ccc(-c2csc(NC(C)=O)n2)cc1NS(=O)(=O)c1cccc2c(N(C)C)cccc12
RESULT: inactive

QUERY: Moving on to COC[C@@]1(C)CC[C@]2(C)CC[C@]3(C)C(=CC[C@@H]4[C@@]5(C)CCCNC(C)(C)[C@@H]5CC[C@]43C)C2C1 (some centres not stated)
RESULT: inactive

QUERY: Moving on to Nc1cc(F)ccc1NC(=O)c1ccc(NC(=O)C/C=C/c2cccnc2)cn1
RESULT: inactive

QUERY: Moving on to O=C(COc1cccc2cccnc12)Nc1ccc(C(=O)/C=C/c2ccc(Cl)cc2)cc1
RESULT: inactive

QUERY: Moving on to O=C(Nc1cc(F)cc2cccnc12)c1cnc(N2CCOCC2)cn1
RESULT: inactive

QUERY: Moving on to O=C(CCCCCCN1CC(=O)N2[C@@H](c3cccc(Br)c3)c3[nH]c4ccccc4c3C[C@H]2C1=O)NO
RESULT: inactive

QUERY: Moving on to C/C=C/[C@@H]1C=C[C@@H]2C[C@H](C)CC[C@H]2[C@]1(C)/C(O)=C1/C(=O)[C@H](CO)N(C)C1=O
RESULT: inactive

QUERY: Moving on to O=[N+]([O-])c1ccc(-c2nnc(SCc3ccc(O)c4ncccc34)n2-c2ccccc2)cc1
RESULT: inactive

QUERY: Moving on to CCCCCCNC(=O)Oc1ccc(/C(=C(\C)c2ccc(OC)cc2)c2ccc(OCCN(C)C)cc2)cc1
RESULT: inactive

QUERY: Moving on to CC(=O)Nc1ccc(NC(=O)Nc2cccc(-c3nc(-c4ccc(NC(=O)c5cccnc5)cc4Cl)no3)c2)cc1C(F)(F)F
RESULT: active

QUERY: Moving on to CCOc1ccc2nc(NC(=O)Nc3ccccc3C)sc2c1
RESULT: inactive

QUERY: Moving on to COc1ccc(/C(C)=C(\c2ccc(Cl)cc2)c2ccc(OCCN)cc2)cc1
RESULT: inactive

QUERY: Moving on to COc1cc(OC)c(S(N)(=O)=O)cc1C(=O)/C=C/c1ccccc1
RESULT: inactive

QUERY: Moving on to O=C1/C(=C/c2ccc([N+](=O)[O-])cc2)SC(=Nc2ccccc2)N1Nc1ccccc1
RESULT: inactive

QUERY: Moving on to CCOC(=O)c1ccc(N/C=C/C(=O)c2ccccc2)cc1
RESULT: inactive

QUERY: Moving on to C/C(=C(/c1ccc(O)cc1)c1ccc(OCCN2CCCCCC2)cc1)c1ccccc1
RESULT: inactive
